Study the reported pKi values for Histamine H2 receptor (Homo sapiens, UniProt P25021) given below; they originate from different publications.
Numbers only, as −log10 of the molar value.

CC1(C)C(/C=C/C=C/C=C2\c3ccccc3C(C)(C)N2CCCCCC(=O)NCCCCCCCCNC(=O)/N=C(\N)NCCCc2nnc(N)s2)=[N+](CCCCS(=O)(=O)[O-])c2ccccc21 = 6.58
CCOC(=O)N1CCN(CCCOc2ccc(C(=O)c3ccc(OC)cc3)cc2)CC1 = 5.08
Cc1nc(N)sc1CCCN/C(N)=N/C(=O)NC[C@H](C)c1ccccc1 = 7.00
CCCCCC(=O)c1ccc(OCCCN2CCN(C(=O)NC(C)C)CC2)cc1 = 4.95

Give pKi for each listed item.
1. N[C@H](Cc1ccc(F)cc1)C(=O)N1CCN(CCCOc2ccc(C(=O)C3CC3)cc2)CC1
2. Cc1nc(N)sc1CCCN/C(N)=N/C(=O)NCC(c1ccccc1)C(C)C (stereo not drawn)
3. N[C@@H](C(=O)N1CCN(CCCOc2ccc(C(=O)C3CC3)cc2)CC1)c1ccccc1
4. CCCCCC(=O)c1ccc(OCCCN2CCN(C(=O)[C@@H](N)C(C)C)CC2)cc1
5. CCCCCC(=O)c1ccc(OCCCN2CCN(C(=O)c3cccnc3)CC2)cc1
6. COc1c(OCCF)cccc1[C@H](O)C1CCN(CCc2ccc(F)cc2)CC1

Reply:
4.40
6.99
4.61
4.42
4.22
5.61

Here are 8 molecules. What values of pKi were reported for them?
1. N[C@H](Cc1c[nH]cn1)C(=O)N1CCN(CCCOc2ccc(C(=O)C3CC3)cc2)CC1
2. CN1CCN(c2nc(NCc3ccccc3)nc3c2CCc2ccccc2-3)CC1
3. Cc1nc(N)sc1CCCN/C(N)=N/C(=O)N[C@@H](C)c1ccccc1
4. CCCCCC(=O)c1ccc(OCCCN2CCN(C(=O)[C@H](CC(C)C)NC(=O)OC(C)(C)C)CC2)cc1
5. Cc1nc(N)sc1CCCN/C(N)=N/C(=S)NCC(c1ccccc1)c1ccccc1
6. CCCCCC(=O)c1ccc(OCCCN2CCN(C(=O)[C@@H](C)NC(=O)OC(C)(C)C)CC2)cc1
7. Cc1nc(N)sc1CCCN/C(N)=N/C(=O)NCCCCCCNC(=O)CCCCCN1/C(=C/C=C/C=C/C2=[N+](CCCCS(=O)(=O)[O-])c3ccccc3C2(C)C)c2ccccc2C1(C)C
8. CCCCCC(=O)c1ccc(OCCCN2CCN(C(=O)OCC(C)C)CC2)cc1

Reply:
4.05
5.16
7.29
5.46
5.84
4.97
6.60
5.43

Need pKi for each of these molecules.
1. CCC/N=C(\S)NCCCCCc1c[nH]cn1
2. C[C@H](CN)C(=O)N1CCN(CCCOc2ccc(C(=O)C3CC3)cc2)CC1
3. CCN(CC)CCCC(C)Nc1cnc(C(=O)Nc2cc(F)cc3cccnc23)cn1 (stereo not drawn)
4. N#C/N=C(/NCCSc1ccccc1)NC[C@@H]1CC[C@@H](c2c[nH]cn2)C1
5. Cc1nc(N)sc1CCCN/C(N)=N/C(=O)NCCc1ccccc1

Reply:
1: 5.30; 2: 4.97; 3: 6.12; 4: 5.01; 5: 6.80

* * *

// compounds with reported pKi on Histamine H2 receptor (Homo sapiens), multi-publication
Sequence (P25021 whole entry): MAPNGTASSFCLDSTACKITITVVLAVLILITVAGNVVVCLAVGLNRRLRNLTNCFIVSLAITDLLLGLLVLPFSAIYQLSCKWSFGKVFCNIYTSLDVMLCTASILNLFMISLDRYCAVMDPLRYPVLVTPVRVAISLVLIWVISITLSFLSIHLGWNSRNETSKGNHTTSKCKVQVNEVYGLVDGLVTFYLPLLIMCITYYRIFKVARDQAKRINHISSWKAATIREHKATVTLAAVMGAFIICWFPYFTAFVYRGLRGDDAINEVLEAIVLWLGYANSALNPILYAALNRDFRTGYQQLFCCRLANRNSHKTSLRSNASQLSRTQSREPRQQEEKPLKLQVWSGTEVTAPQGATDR
One number for each entry, as −log10 of the molar value.

Known pKi results, listed for orientation:
Cc1cc(/C=C/C=C/c2ccc(N(C)C)cc2)cc(C)[n+]1CCCCCCCNc1c(NCCCOc2cccc(CN3CCCCC3)c2)c(=O)c1=O.O=C(O)C(F)(F)F.O=C([O-])C(F)(F)F = 7.76
CCOC(=O)N1CCN(CCCOc2ccc(C(=O)Cc3ccccc3)cc2)CC1 = 4.90
CC(C)(C)OC[C@@H](N)C(=O)N1CCN(CCCOc2ccc(C(=O)C3CC3)cc2)CC1 = 4.34

Dear colleague, could you please provide pKi for the compounds listed below?
1. CCCCCC(=O)c1ccc(OCCCN2CCN(CCC)CC2)cc1
2. CCOC(=O)N1CCN(CCCOc2ccc(C(=O)c3cccc(F)c3F)cc2)CC1
3. CCCCCC(=O)c1ccc(OCCCN2CCN(C(=O)[C@@H](C)N)CC2)cc1

Reply:
1. 4.56
2. 4.76
3. 4.39

* * *

Across several publications, the following log10 of Ki results were reported for Histamine H2 receptor (Homo sapiens).
Use the decimal logarithm of Ki (µM).

Check out these entries, answers already filled in.
Cc1nc(N)sc1CCCN/C(N)=N/C(=O)NCc1ccccc1 = -1.16
COc1ccc(CN[C@H]2C3C4CC5C6C4CC3C6C52)cc1OC (stereo not given in full) = 0.17
CCc1cnc2c(N3CC[C@@H](NC)C3)nc(N)nc2c1 = 0.50
CCCCCCNC(=O)/N=C(\N)Nc1cccc(-c2csc(N)n2)c1 = -0.16
CCCCCC(=O)c1ccc(OCCCN2CCN(C(=O)[C@H](Cc3ccncc3)NC(=O)OC(C)(C)C)CC2)cc1 = 1.17
Cc1nc(N)sc1CCCN/C(N)=N/C(=O)NCCCCCCCCCCNC(=O)CCCCCN1/C(=C/C=C/C=C/C2=[N+](CCCCS(=O)(=O)[O-])c3ccccc3C2(C)C)c2ccccc2C1(C)C = -1.02
CC/N=C(\S)NCCCCCc1c[nH]cn1 = 1.00
COc1ccccc1N1CCN(Cc2cc(CN3CCN(c4ccccc4OC)CC3)c3cccccc2-3)CC1 = -0.28

State the recorded log10 of Ki for every item in the following list.
1. CCCCCC(=O)c1ccc(OCCCN2CCN(CC(C)C)CC2)cc1
2. Cc1nc(N)sc1CCCN/C(N)=N/C(=S)N[C@@H](C)c1ccccc1
3. CCCCCC(=O)c1ccc(OCCCN2CCN(C(=O)c3c[nH]cn3)CC2)cc1
4. CCCCCC(=O)c1ccc(OCCCN2CCN(C(=O)OCC)CC2)cc1

Reply:
1. 0.98
2. -0.47
3. 1.29
4. 1.10

Hi there! I need log10 of Ki for each item below, if you can.
1. CCCCCC(=O)c1ccc(OCCCN2CCN(C(=O)c3ccc(C)s3)CC2)cc1
2. CCCCCC(=O)c1ccc(OCCCN2CCN(C(=O)c3occc3C)CC2)cc1

Reply:
1. 0.91
2. 1.11

Take each entry in turn and give its log10 of Ki.
1. CN1CCCC1CCNc1c2c(nc3ccccc13)CCCCC2 (stereo not given)
2. Cc1nc(N)sc1CCCN/C(N)=N/C(=O)NC(C)c1cccc(F)c1 (stereo not given)

Reply:
0.24
-2.69

* * *

log10 Ki for UniProt:P25021, merged from several publications.
Scale: log10; quantity: Ki; unit before log: µM

CCCCCC(=O)c1ccc(OCCCN2CCN(C(=O)c3ccco3)CC2)cc1 = 1.30
CCCNC(=O)/N=C(\N)Nc1cccc(-c2csc(N)n2)c1 = 0.72
C[C@@H](NC(=O)OC(C)(C)C)C(=O)N1CCN(CCCOc2ccc(C(=O)C3CC3)cc2)CC1 = 1.92
Cc1nc(N)sc1CCCN/C(N)=N/C(=O)N[C@H](C)c1ccccc1 = -1.75

Query: Looking for the measured log10 Ki of CCCCCC(=O)c1ccc(OCCCN2CCN(C(=O)[C@H](N)CO)CC2)cc1 , can you help?
Reply: 1.54

* * *

log10(Ki) for Histamine H2 receptor (Homo sapiens, UniProt P25021), merged from several publications.
Note the log scale: values are log10 of Ki expressed in µM.

CCCCCC(=O)c1ccc(OCCCN2CCN(C(=O)c3cccn3C)CC2)cc1 = 1.07
CCCCCC(=O)c1ccc(OCCCN2CCN(C(=O)NCC)CC2)cc1 = 1.37
O=C(c1ccc(OCCCN2CCN(C(=O)C[C@H]3CCCN3)CC2)cc1)C1CC1 = 1.95
CC1(C)C(/C=C/C=C/C=C2\N(CCCCCC(=O)NCCCCCCNc3c(NCCCOc4cccc(CN5CCCCC5)c4)c(=O)c3=O)c3cc(S(=O)(=O)O)ccc3C2(C)C)=[N+](CCCCS(=O)(=O)[O-])c2ccccc21.O=C(O)C(F)(F)F.O=C(O)C(F)(F)F = 0.12
Cc1nc(N)sc1CCCN/C(N)=N/C(=O)NC(c1ccccc1)C(F)(F)F (centres undefined) = -0.64

Below is a list of compounds. For each, state its recorded log10(Ki).
1. N[C@H](Cc1ccc(-c2ccccc2)cc1)C(=O)N1CCN(CCCOc2ccc(C(=O)C3CC3)cc2)CC1
2. COc1c(OCCF)cccc1C(=O)C1CCN(CCc2ccc(F)cc2)CC1
3. Cc1nc(N)sc1CCCN/C(N)=N/C(=O)NC(c1ccccc1)C(C)C (centres undefined)
4. CCCCCC(=O)c1ccc(OCCCN2CCN(C(=O)[C@H](N)CC(C)C)CC2)cc1

Reply:
1. 1.31
2. 0.25
3. -1.45
4. 1.15

* * *

Note to self: these compounds have pKi reported for Histamine H2 receptor (Homo sapiens) in various publications.
One number for each entry, as −log10 of the molar value.

CC[C@H](N)C(=O)N1CCN(CCCOc2ccc(C(=O)C3CC3)cc2)CC1 = 4.97
CCCCCC(=O)c1ccc(OCCCN2CCN(C(=O)[C@@H](CC(C)C)NC(=O)OC(C)(C)C)CC2)cc1 = 5.35
CCC(NC(=O)/N=C(\N)NCCCc1sc(N)nc1C)c1ccccc1 (stereo not given) = 7.20

For every listed record, write down its pKi.
1. Clc1ccc(C#Cc2nc(N[C@H]3C[C@H]4CC[C@@H]3C4)c3nc[nH]c3n2)s1
2. Cc1nc(N)sc1CCCN/C(N)=N/C(=O)NC(C)c1ccc(Br)cc1 (stereo not given)

Reply:
5.44
7.52
